Data provenance is PubChem BioAssay AID1259407.

tested on: CCRIS mutagenicity, Ames/micronucleus/aberration tests; experiment: CCRIS mutagenicity studies; settings: Test System: AMES SALMONELLA TYPHIMURIUM; Strain/Indicator: TA1538; Metabolic Activation: RAT, LIVER, S-9, AROCLOR 1254; Method: STANDARD PLATE
Active and inactive are the calls of the source. No rule for the calls is given here.
The reply should be one of these categories: active, inactive

Solved cases below.
| molecule | group_label |
| --- | --- |
| Cc1cc(N(CCO)CCO)ccc1N=Nc1ccc(N)cc1 | inactive |
| CCCCCCC(CCCC)COc1ccc(-c2ccc(-c3ccc(-c4ccc(OCC(CCCC)CCCCCC)cc4)cc3)cc2)cc1 (centres undefined) | inactive |
| C=C(C)C(=O)OCCOC(=O)C(=C)C | inactive |

**Query** Which result was noted for this molecule in the test: `Nc1ccc(N=Nc2ccc3c(c2)C(=O)/C(=N/Nc2ccc(Nc4ccc(N/N=C5/C(=O)c6cc(N=Nc7ccc(N)cc7N)ccc6C=C5S(=O)(=O)O)cc4S(=O)(=O)O)cc2)C(S(=O)(=O)O)=C3)c(N)c1`
**Result** active

**Query** Which result was noted for this molecule in the test: CCCCC(CC)COC(=O)c1ccc(N(C)C)c([N+](=O)[O-])c1 (centres undefined)
**Result** active

**Query** Which result was noted for this molecule in the test: `Nc1ccc(N=Nc2ccc(N=Nc3c(S(=O)(=O)O)cc4c(c3N)C(=O)/C(=N\Nc3ccc(N=Nc5ccc(N)cc5N)cc3)C(S(=O)(=O)O)=C4)cc2)c(N)c1`
**Result** active

**Query** Which result was noted for this molecule in the test: `CC(C)c1c(C(=O)Nc2ccccc2)c(-c2ccccc2)c(-c2ccc(F)cc2)n1CC[C@@H](O)C[C@@H](O)CC(=O)O`
**Result** inactive

**Query** Which result was noted for this molecule in the test: `Nc1ncc([N+](=O)[O-])s1`
**Result** inactive

**Query** Which result was noted for this molecule in the test: `O=CN(O)c1ccc([N+](=O)[O-])cc1`
**Result** active

**Query** Which result was noted for this molecule in the test: `O=C(O)c1ccc(N=Nc2ccc(O)c(C(=O)O)c2)cc1`
**Result** inactive

**Query** Which result was noted for this molecule in the test: `C=CC(=O)OCCOCCOC(=O)C=C`
**Result** inactive

**Query** Which result was noted for this molecule in the test: `O=C(O)CC[C@H](NC(=O)COc1cc(Cl)c(Cl)cc1Cl)C(=O)O`
**Result** inactive

**Query** Which result was noted for this molecule in the test: `Nc1ccc(Cl)c(C(F)(F)F)c1`
**Result** inactive

**Query** Which result was noted for this molecule in the test: `O=C(CCc1ccc(O)cc1)c1c(O)cc(O)cc1O`
**Result** inactive

====

System: CCRIS mutagenicity, Ames/micronucleus/aberration tests
Test: CCRIS mutagenicity studies
Settings: Test System: E. COLI; Strain/Indicator: WP2; Metabolic Activation: NONE; Method: STANDARD PLATE
Text: The CCRIS database contains chemical records with carcinogenicity, mutagenicity, tumor promotion, and tumor inhibition test results. It was developed by the National Cancer Institute (NCI). Data are derived from studies cited in primary journals, current awareness tools, NCI reports, and other sources. Test results have been reviewed by experts in carcinogenesis and mutagenesis. CCRIS provides historical information from the years 1985 - 2011. It is no longer updated. […]
Activity calls are given as the source filed them. How the calls were made is not given here.
test_readout: mutagenic call

| compound | mutagenic call |
| --- | --- |
| CSCCC(=O)N1[C@@H](c2ccccc2O)SC[C@H]1C(=O)O | inactive; negative |
| O=P([O-])([O-])OC(CCO)CCO.O=P([O-])([O-])OCC(O)CO.[Mn+2].[Mn+2] | inactive; negative |
| CN(C)c1ccc(N=NS(=O)(=O)O)cc1 | active; positive |
| O=C([O-])[C@H](O)[C@@H](O)[C@H](O)[C@H](O)CO.O=C([O-])[C@H](O)[C@@H](O)[C@H](O)[C@H](O)CO.[Mn+2] | inactive; negative |
| O=CC(O)C(O)C(O)CO (centres undefined) | inactive; negative |
| COC(=O)c1ccc(O)cc1 | inactive; negative |

**Query** Given the entry `COC(=O)Nc1nc2ccc(OS(=O)(=O)c3ccc(F)cc3)cc2[nH]1` , report its measured mutagenic call.
**Result** inactive; negative

**Query** Given the entry `CCCN(N=O)C(N)=O` , report its measured mutagenic call.
**Result** active; positive

**Query** Given the entry `NNCCO` , report its measured mutagenic call.
**Result** active; positive

====

test system: CCRIS mutagenicity, Ames/micronucleus/aberration tests; test: CCRIS mutagenicity studies; conditions: End Point: IN VITRO CHROMOSOMAL ABERRATIONS; Test System: CHO CELLS; Metabolic Activation: RAT, LIVER, S-9, AROCLOR 1254
Calls of active or inactive are those of the source. How the calls were made is not given here. Where a SMILES comes first, the peptide text is derived from it. [ ]: non-standard residue; d: D form. ξ: configuration not given here. Trp(1-OMe) = COn1cc(C[C@H](N)C(=O)O)c2ccccc21; Asu = N[C@@H](CCCCCC(=O)O)C(=O)O; Ile(3ξ) = CCC(C)[C@H](N)C(=O)O; dPip = O=C(O)[C@H]1CCCCN1
The reply should be one of these categories: y = active, n = inactive

Solved cases below.
| molecule | group_label |
| --- | --- |
| c1ccccc1 | n |
| CCCNC(=O)NS(=O)(=O)c1ccc(Cl)cc1 | n |
| CN(C)c1ccccc1 | y |
| c1ccc(Nc2ccc3ccccc3c2)cc1 | n |
| ClCC(Br)CBr (stereo not given) | y |
| OCCNCCO | n |

**Query** Which result was noted for this molecule in the test: `O=P(O)(O)O`
**Result** y

**Query** Which result was noted for this molecule in the test: CCC(C)[C@@H]1NC(=O)[C@H](Cc2cn(OC)c3ccccc23)NC(=O)[C@H](CCCCCC(=O)OC)NC(=O)[C@H]2CCCCN2C1=O (stereo not given in full) (cyclo([Asu](OMe)[Trp(1-OMe)][Ile(3ξ)][dPip]))
**Result** y

**Query** Which result was noted for this molecule in the test: `O=S(=O)(O)c1ccc(N=Nc2c(O)ccc3cc(S(=O)(=O)O)ccc23)cc1`
**Result** n

**Query** Which result was noted for this molecule in the test: `Cc1noc(NS(=O)(=O)c2ccc(N)cc2)c1C`
**Result** n

====

test system: CCRIS mutagenicity, Ames/micronucleus/aberration tests; assay: CCRIS mutagenicity studies; conditions: Test System: AMES SALMONELLA TYPHIMURIUM; Strain/Indicator: TA1535; Metabolic Activation: HAMSTER, LIVER, S-9, AROCLOR 1254 (10%); Method: PREINCUBATION
Calls of active or inactive are those of the source. No rule for the calls is given here.
test_readout: mutagenic call

| compound | mutagenic call |
| --- | --- |
| CC/C=C1\OC(=O)c2ccccc21 | inactive; negative |
| ClCC(Br)CBr (configuration not stated) | active; positive |
| NC1CCC(CC2CCC(N)CC2)CC1 (configuration not stated) | inactive; negative |
| Nc1cccc(O)c1 | inactive; negative |
| C=C(C)C#N | inactive; negative |
| Cc1cc(Cl)ccc1O | inactive; negative |

**Query** Given the entry `Nc1cc(Cl)ccc1Cl` , report its measured mutagenic call.
**Result** inactive; negative

**Query** Given the entry `Nc1cc(S(=O)(=O)[O-])cc2c1C(=O)/C(=N\Nc1ccc(-c3ccc(N/N=C4\C(=O)c5c(N)cc(S(=O)(=O)[O-])cc5C=C4S(=O)(=O)[O-])c(O)c3)cc1O)C(S(=O)(=O)[O-])=C2.[Cu].[Cu].[Na+].[Na+].[Na+].[Na+]` , report its measured mutagenic call.
**Result** inactive; negative

**Query** Given the entry `COc1cc2c(cc1OC)[C@@]13CCN4CC5=CCO[C@H]6CC(=O)N2[C@H]1[C@H]6[C@H]5C[C@H]43` , report its measured mutagenic call.
**Result** inactive; negative

**Query** Given the entry CN(C)CCOC(C)(c1ccccc1)c1ccccn1 (configuration not stated) , report its measured mutagenic call.
**Result** inactive; negative

**Query** Given the entry `O=C(Cl)c1ccc([N+](=O)[O-])cc1` , report its measured mutagenic call.
**Result** active; positive

**Query** Given the entry `[O]=[Mo](=[O])=[O]` , report its measured mutagenic call.
**Result** inactive; negative

====

system: CCRIS mutagenicity, Ames/micronucleus/aberration tests; assay: CCRIS mutagenicity studies; conditions: Test System: AMES SALMONELLA TYPHIMURIUM; Strain/Indicator: TA98; Metabolic Activation: RAT, LIVER, S-9, AROCLOR 1254; Method: PREINCUBATION
The source made the active and inactive calls. No rule for the calls is given here.
The reply should be one of these categories: active, inactive

| compound | group_label |
| --- | --- |
| Clc1c(Cl)c(Cl)c2ccccc2c1Cl | inactive |
| Nc1nc(=O)n([C@H]2C[C@H](O)[C@@H](CO)O2)cc1CCCl | inactive |

**Query** Which result was noted for this compound in the test: `CNc1ccc(N(CCO)CCO)cc1[N+](=O)[O-]`
**Result** active

**Query** Which result was noted for this compound in the test: `Brc1ccccc1-c1ccccc1`
**Result** inactive

**Query** Which result was noted for this compound in the test: `O=C(O)c1ccccc1Nc1cc(Cl)ccc1C(=O)O`
**Result** inactive

**Query** Which result was noted for this compound in the test: `COc1ccc2c3c([nH]c2c1)C(C)=NCC3`
**Result** inactive

**Query** Which result was noted for this compound in the test: `c1ccc(Nc2ccc3ccccc3c2)cc1`
**Result** inactive
